Measured melting point values are reported for all entries that follow.
Property: melting point

- C1=C(c2nc(COc3ccc(CCCn4ccnc4)cc3)co2)CCc2ccccc21: 99 to 100 °C
- CC(=O)OC(C)(C)C(=O)Nc1c(C(=O)c2ccccc2)[nH]c2cc(Cl)ccc12: 162 to 165 °C
- CCCCCCCCCCCCn1nnc(N(C(=O)Nc2ccc(F)cc2F)c2ccccc2)n1: 55 to 57 °C
- COc1ccc(C2CNCCc3c2cc(OC)c(OC)c3C)cc1 (stereo not given): 100 to 111 °C
- Cc1ccc(-c2cc(N3CCCC3)c(C#N)c3c2-c2ccccc2C3)cc1: 182 to 184 °C

====

Reported melting point values are given for each entry in this list.
Property: melting point

* CN(CCF)C1CN(c2ccc(N3C[C@H](CN=[N+]=[N-])OC3=O)cc2F)C1 | 60 to 63 °C
* CNc1c(NCCSCc2csc(CN(C)C)n2)c(=O)c1=O | 163 to 167 °C
* CCCCCc1noc(-c2ccc(OCCC3CCN(c4ccc(C)nn4)CC3)cc2)n1 | 111 °C
* N#CCc1ncccc1[N+](=O)[O-] | 106 to 108 °C
* COc1cc2c3ccc(OC)c(OC)c3n(Cc3c(Cl)cccc3Cl)c2cc1OC | 207 to 210 °C
* CCOC(=O)CC(=O)c1cc(Oc2ccccc2)c(NS(C)(=O)=O)cc1O | 112 °C
* CNC(=NC#N)Nc1ccc(Cl)nc1 | 227 to 228 °C
* COc1cccc(C(=O)Nc2ccc(C(C)=O)cc2)c1 | 152 to 154 °C
* COC(=O)Nc1cc(Cl)nc(NC(=O)OC)n1 | 156 to 158 °C
* Cc1nc(-c2ccccc2)cc(-c2cccc([N+](=O)[O-])c2)c1CBr | 155 to 157 °C

====

Property: melting point

* COc1nc2cc([N+](=O)[O-])c(C)c(C(=O)N[C@@H](Cc3ccccc3)C(=O)OC(C)(C)C)c2nc1OC | 86 to 88 °C
* Cc1ccc([C@@H](C)NCc2ccc(O)cc2)cc1 | 114 to 116 °C
* C/C=C(\C(=O)N(CC)CC)c1cc(OC)c(O)c2c(Cc3ccccc3)cccc12 | 86 to 87 °C
* CN(C)Cc1c(O)ccc2cc(Br)ccc12 | 95 to 96 °C
* C#CCOc1cc(C(=O)O)cc([N+](=O)[O-])c1C(=O)c1ccccc1 | 169 to 172 °C
* CC1=C(C(=O)OCC2CCCO2)C(c2cccc(Br)c2)C(C(=O)OCC2CCCO2)=C(C)N1 (stereo not given) | 138 to 140 °C
* CCOC(=O)c1ccc(N2CCC(NCC(O)COc3ccc(N=Nc4ccc([N+](=O)[O-])cc4)nc3)CC2)nc1 (stereo not given) | 172 °C
* O=C(Nc1cccc(CC(F)(F)F)c1)Nc1ccc2c(c1)COC2=O | 279 to 282 °C
* c1ccc2cc(OCCc3c[nH]cn3)ccc2c1 | 157 to 158 °C
* CCOC(=O)n1nc(-c2cc(C(C)(C)C)c(O)c(C(C)(C)C)c2)c2ccc(C)nc21 | 208 to 209 °C

====

The following molecules are shown together with reported melting point values.
Property: melting point

* CCOC(=O)c1cn(-c2ccc(Oc3ccccc3)cc2)cn1 | 113 to 114 °C
* COc1ccc(NC(=O)c2ccccc2O)cc1 | 162 to 163 °C
* O=C(O)C=Cc1cn(Cc2cc(OCc3ccccc3)cc(OCc3ccccc3)c2)cc1-c1ccccc1 | 182 to 183 °C
* N#Cc1[nH]c2ccc(Br)cc2c1-c1ccccc1 | 227 to 230 °C
* COc1ccc2nc(NCC3CCN(CC4COc5ccccc5O4)CC3)sc2c1 (stereo not given) | 135 °C
* CCCC(=O)c1cnc2c(OCCOC)cccc2c1Nc1ccccc1C | 75 to 77 °C
* O=C(CCc1nc(-c2ccc(Cl)cc2)co1)OC(c1ccccc1)c1ccccc1 | 94 to 95 °C
* CN(C)Cc1ccc(CSCCNc2ncc([N+](=O)[O-])c(=O)[nH]2)o1 | 201 to 204 °C
* O=C(O)c1ccc(CCCC2SCC(=O)N2CCC2(O)CCCC2)cc1 (stereo not given) | 149 to 150 °C
* O=C1CS[C@@H]2[C@H](NC(=O)Cc3ccccc3)C(=O)N2C1 | 183 °C

====

Measured melting point of individual entries
Property: melting point

- COc1c(-c2cc3c(s2)CCC(C)(C)C3N=[N+]=[N-])ccc2c(=O)c(C(=O)O)cn(C3CC3)c12 (stereo not given): 89 to 90 °C
- CO/C=C(/C(=O)OC)c1ccccc1Oc1cc(Cl)ncn1: 94 to 95 °C
- N#Cc1c(Cl)cccc1C(F)(F)F: 45 to 47 °C
- CCOc1c(N)c2c(c(OCC)c1OCC)C(C1c3cc(OC)c(OC)cc3CCN1C)OC2=O (stereo not given): 143 °C
- NC(=O)c1ccc(OCCCCl)cc1: 142 to 143 °C
- O=C(N(CCN(C(=O)C(F)(F)F)c1cccc2[nH]ccc12)Cc1ccccc1)C(F)(F)F: 174 to 177 °C
- CCOC(=O)c1cc(=O)cc(-c2ccc([N+](=O)[O-])cc2)o1: 160 to 162 °C
- CCOC(=O)c1ccc(S(N)(=O)=O)cc1: 102 to 104 °C
- O=C1NC(=O)C(c2cccc(C(F)(F)F)c2)O1 (stereo not given): 93 to 96 °C
- CC1CN(C(=O)c2ccc(Cl)cc2Cl)c2ccc(Cl)cc2C1=O (stereo not given): 157 to 159 °C

====

Recorded melting point by entry
Property: melting point

• C=Cc1nc(Cl)nc(Cl)c1OC = 60 to 61 °C
• O=S(=O)(c1ccc(I)cc1)N1CCC(Br)(Br)C(c2ccc(Cl)c(C(F)(F)F)c2)=N1 = 148 to 150 °C
• COC(=O)C1Cc2ccccc2CC(C(=O)OC)C1=O (stereo not given) = 100 to 110 °C
• COc1nccnc1OCC(O)CN1CCC(N2CCN(c3ccccc3)C2=O)CC1 (stereo not given) = 128 to 129 °C
• CC(C)(C)OC(=O)n1cc(C(=O)C2CSC(c3cccnc3)N2)c2cccc(OCc3ccccc3)c21 (stereo not given) = 91 to 96 °C
• CCCC[C@H](NC(=O)[C@H](CCC)NC(=O)OCc1ccccc1)C(=O)CSCc1ccco1 = 95 to 96 °C
• CCOC(=O)C(=O)Nc1ccc(Cl)c(C(F)(F)F)c1 = 128 to 130 °C
• CNS(=O)(=O)c1ccccc1Nc1nc(Nc2ccc3c(c2)CCN(S(C)(=O)=O)CC3)ncc1Cl = 199 to 201 °C
• Cc1onc(C(=O)c2ccc(Cl)cc2)c1[N+](=O)[O-] = 173 to 175 °C
• COC(=O)C1(CC(CCCl)=C(C)C)C(=O)C=C(OC(C)C)CC1C (stereo not given) = 76 to 77 °C
• O=C(NC1CCC1)c1ccc2nonc2c1 = 175 to 176 °C
• Nc1ccc(S(=O)(=O)Nc2cccc3[nH]ccc23)cc1 = 215 °C
• COc1c(/C=C/c2ccc(NS(C)(=O)=O)cc2)cc(N2CCC(=O)NC2=O)cc1C(C)(C)C = 260 to 261 °C
• CCC1C(C)=NN=C(c2ccccc2Cl)c2cc(OC)c(OC)cc21 (stereo not given) = 129 to 131 °C
• COc1c(C)cc(-c2cncc(OC3SCC(OC(C)=O)C(OC(C)=O)C3OC(C)=O)c2)cc1C (stereo not given) = 146 °C
• CCOC(=O)CN1CCc2c(sc(N)c2C(=O)c2ccc(Cl)cc2)C1 = 105 to 106 °C
• COc1cc(Nc2nccc(-c3ccc([N+](=O)[O-])s3)n2)cc(OC)c1OC = 182 to 183 °C
• COc1ccc(-c2cc(=O)n(C)c(OC(C)C)n2)cc1OC = 124 to 126 °C
• CCCCCCCCCC(C)(C)c1cc(C(=O)Nc2ccc(C(=O)O)cc2)ccc1OC = 177 °C
• COc1ccc([N+](=O)[O-])cc1NC(=O)CCCCC1CCSS1 (stereo not given) = 117 °C

====

Reported melting point is given for each of the following compounds.
Property: melting point

* CN(CCOc1ccc(CCOCCc2ncno2)cc1)c1nc2ccccc2o1 | 89 to 90 °C
* Cn1cnnc1C(c1ccc(I)cc1)c1cc2c3c(c1)c(-c1cccc(Cl)c1)cc(=O)n3CC2 (centres undefined) | 194 °C
* CCn1ncnc1COc1nc2c(cc1C(C)(C)C)nnn2-c1ccccc1F | 117 to 120 °C
* C=C(C)C1CCC2(C(=O)O)CCC3(C)C(CCC4C5(C)CCC(O)C(C)(C)C5CCC43C)C12 (centres undefined) | 291 to 292 °C
* CCCN(CCC)C1COc2cccc(C(=O)C3CC3)c2C1 (centres undefined) | 100 to 102 °C
* COc1cc2c(cc1Nc1ncc(Cl)c(N[C@@H]3CCCC[C@H]3NS(C)(=O)=O)n1)CCN(CCNC(C)=O)CC2 | 108 to 118 °C
* CCOc1cccc(-c2nc(-c3ccccc3COC(=O)OCc3ccccc3-c3n[nH]c(-c4cccc(OCC)c4)n3)n[nH]2)c1 | 143 to 145 °C
* O=[N+]([O-])c1cccc(S(=O)(=O)C(CCl)Sc2ccccc2)c1 (centres undefined) | 126 °C
* ClCc1coc(Cc2ccccc2)n1 | 31 to 32 °C
